# protocol.description: log P (HPLC/MS data of the preparation examples)
# protocol.conditions: reversed phase HPLC column, pH 2.7
Assignment: determine reported chromatographic logP for the given compounds.
// response body must contain only the number

[Q] Please supply the value of reported chromatographic logP for the item "Cn1ncnc1C(=NOCc1cccc(N)n1)c1ccccc1"
[A] 1

[Q] Please supply the value of reported chromatographic logP for the item "Cn1cnnc1C(=NOCc1cccc(Br)n1)c1ccccc1"
[A] 2.28

[Q] Please supply the value of reported chromatographic logP for the item "CCCCCC(=O)Nc1cccc(CON=C(c2ccccc2)c2ocnc2C)n1"
[A] 3.94

[Q] Please supply the value of reported chromatographic logP for the item "CCCCCC(=O)Nc1cccc(CON=C(c2ccccc2)c2ncnn2C)n1"
[A] 3.39

[Q] Please supply the value of reported chromatographic logP for the item "Cn1cnnc1C(=NOCc1cccc(C#CC2CC2)n1)c1ccccc1"
[A] 2.56

[Q] Please supply the value of reported chromatographic logP for the item "Cc1ncoc1C(=NOCc1cccc(N2C(=O)c3ccccc3C2=O)n1)c1ccccc1"
[A] 3.25

[Q] Please supply the value of reported chromatographic logP for the item "CCCCCOC(=O)Nc1nc(CON=C(c2ccccc2)c2ocnc2C)cs1"
[A] 4.09

[Q] Please supply the value of reported chromatographic logP for the item "Cn1ncnc1C(=NOCc1cccc(N2C(=O)c3ccccc3C2=O)n1)c1ccccc1"
[A] 2.76
